Test system: Salmonella typhimurium
Experiment: Antimicrobial activity against Salmonella enterica serovar Typhimurium BN18/41 harboring GyrA G81C,acrR mutant genes by agar doubling dilution method
Assay type: functional, Salmonella enterica subsp. enterica serovar Typhimurium
Would you mind telling me the reported log10 of MIC of each entry?
The common logarithm of MIC in µg/mL is what is listed.

Q. Kindly state the measured log10 of MIC obtained for CN(C)[C@@H]1C(O)=C(C(N)=O)C(=O)[C@@]2(O)C(O)=C3C(=O)c4c(O)cccc4[C@@](C)(O)[C@H]3C[C@@H]12 [TETRACYCLINE] with Salmonella typhimurium.
A. 0.90

Q. Cool, now CC1CCc2cc(F)cc3c(=O)c(C(=O)O)cn1c23 (stereo unspecified) [FLUMEQUINE]
A. 2.41

Q. Consider next the molecule O=C(O)c1cn(C2CC2)c2cc(N3CCNCC3)c(F)cc2c1=O [CIPROFLOXACIN] in the same way.
A. 0.30

Q. Same thing, different molecule: CS(=O)(=O)c1ccc([C@@H](O)[C@@H](CF)NC(=O)C(Cl)Cl)cc1 [FLORFENICOL]
A. 1.81

Q. Another molecule to look at: O=C(N[C@H](CO)[C@H](O)c1ccc([N+](=O)[O-])cc1)C(Cl)Cl [CHLORAMPHENICOL]
A. 1.51

----------
System: Salmonella typhimurium
Test: Antimicrobial activity against ramR::kan-deficient Salmonella enterica serovar Typhimurium S/921495 by agar doubling dilution method
Type: functional, Salmonella enterica subsp. enterica serovar Typhimurium
For each entry below, report its MIC value.
Report the figure in µg/mL without appending any unit label.

Q. Hello, I am looking for reported MIC with Salmonella typhimurium for "CN(C)[C@@H]1C(O)=C(C(N)=O)C(=O)[C@@]2(O)C(O)=C3C(=O)c4c(O)cccc4[C@@](C)(O)[C@H]3C[C@@H]12" . Could you help?
A. 4

Q. Try the molecule CC1CCc2cc(F)cc3c(=O)c(C(=O)O)cn1c23 (stereo unspecified)
A. 2

Q. Then this molecule: "O=C(N[C@H](CO)[C@H](O)c1ccc([N+](=O)[O-])cc1)C(Cl)Cl"
A. 16

Q. And the next one, "CCn1cc(C(=O)O)c(=O)c2ccc(C)nc21" ?
A. 16

Q. What do we get for "CS(=O)(=O)c1ccc([C@@H](O)[C@@H](CF)NC(=O)C(Cl)Cl)cc1" ?
A. 16

Q. Here is the next molecule: "O=C(O)c1cn(C2CC2)c2cc(N3CCNCC3)c(F)cc2c1=O"
A. 0.06

----------
Exercise: state measured MIC for each of the compounds provided.
Tested on: Salmonella typhimurium
Experiment: Antimicrobial activity against multidrug-resistant Salmonella enterica serovar Typhimurium 543SA98 harboring GyrA […] mutant gene by agar doubling dilution method
Assay type: functional, Salmonella enterica subsp. enterica serovar Typhimurium
Numbers only; they are read as µg/mL.

Q. Which MIC value belongs to CC1CCc2cc(F)cc3c(=O)c(C(=O)O)cn1c23 (stereo unspecified) ?
A. 32

Q. Proceed to "O=C(N[C@H](CO)[C@H](O)c1ccc([N+](=O)[O-])cc1)C(Cl)Cl"
A. 512

Q. "O=C(O)c1cn(C2CC2)c2cc(N3CCNCC3)c(F)cc2c1=O" ?
A. 0.5

Q. Now consider "CS(=O)(=O)c1ccc([C@@H](O)[C@@H](CF)NC(=O)C(Cl)Cl)cc1" and answer again.
A. 512

Q. Moving on to the next compound: "CCn1cc(C(=O)O)c(=O)c2ccc(C)nc21"
A. 1020

Q. # iterate: "CN(C)[C@@H]1C(O)=C(C(N)=O)C(=O)[C@@]2(O)C(O)=C3C(=O)c4c(O)cccc4[C@@](C)(O)[C@H]3C[C@@H]12"
A. 128

----------
System: Salmonella typhimurium
Assay: Antimicrobial activity against ramA::kan-deficient Salmonella enterica serovar Typhimurium 902SA92 harboring GyrA S83A and D87N, GyrB S464F and ParC S80I mutant genes by agar doubling dilution method
Format: functional, Salmonella enterica subsp. enterica serovar Typhimurium
Test Readout: MIC (µg/mL)
Note: unit µg/mL is implicit; provide only the numeric part.

Q. For CC1CCc2cc(F)cc3c(=O)c(C(=O)O)cn1c23 (stereo unspecified) , what is its reported MIC?
A. 512

Q. Now the compound "CN(C)[C@@H]1C(O)=C(C(N)=O)C(=O)[C@@]2(O)C(O)=C3C(=O)c4c(O)cccc4[C@@](C)(O)[C@H]3C[C@@H]12"
A. 256

Q. And then "CS(=O)(=O)c1ccc([C@@H](O)[C@@H](CF)NC(=O)C(Cl)Cl)cc1" , what is it?
A. 4

Q. One more compound: "O=C(N[C@H](CO)[C@H](O)c1ccc([N+](=O)[O-])cc1)C(Cl)Cl"
A. 256

Q. Now consider "O=C(O)c1cn(C2CC2)c2cc(N3CCNCC3)c(F)cc2c1=O" .
A. 8

Q. Moving on to "CCn1cc(C(=O)O)c(=O)c2ccc(C)nc21"
A. 4100

----------
Test system: Salmonella typhimurium
Test: Antimicrobial activity against multidrug-resistant Salmonella enterica serovar Typhimurium BN9945 by agar doubling dilution method
Type: functional, Salmonella enterica subsp. enterica serovar Typhimurium
Mark satisfied for MIC under 100 µg/mL, not satisfied if at or over.

Q. API: query returns whether the molecule falls strictly under 100 µg/mL in MIC. Query: "CS(=O)(=O)c1ccc([C@@H](O)[C@@H](CF)NC(=O)C(Cl)Cl)cc1"
A. not satisfied

Q. Would you kindly repeat that for CC1CCc2cc(F)cc3c(=O)c(C(=O)O)cn1c23 (stereo unspecified) ?
A. satisfied

Q. Continue with "O=C(N[C@H](CO)[C@H](O)c1ccc([N+](=O)[O-])cc1)C(Cl)Cl"
A. not satisfied

Q. Check "CCn1cc(C(=O)O)c(=O)c2ccc(C)nc21" too.
A. not satisfied

Q. Same question for "CN(C)[C@@H]1C(O)=C(C(N)=O)C(=O)[C@@]2(O)C(O)=C3C(=O)c4c(O)cccc4[C@@](C)(O)[C@H]3C[C@@H]12" please.
A. not satisfied

Q. Next molecule: "O=C(O)c1cn(C2CC2)c2cc(N3CCNCC3)c(F)cc2c1=O"
A. satisfied

----------
System: Salmonella typhimurium
Assay: Antimicrobial activity against Salmonella enterica serovar Typhimurium BN18/71 harboring plasmid encoded RamR gene, GyrA G81C,acrR mutant genes by agar doubling dilution method
Format: functional, Salmonella enterica subsp. enterica serovar Typhimurium
Kindly state MIC for each of the entries shown.
Give your result in µg/mL as a bare value.

Q. Reported MIC for CN(C)[C@@H]1C(O)=C(C(N)=O)C(=O)[C@@]2(O)C(O)=C3C(=O)c4c(O)cccc4[C@@](C)(O)[C@H]3C[C@@H]12 [TETRACYCLINE] : what is it?
A. 2

Q. Try the compound O=C(O)c1cn(C2CC2)c2cc(N3CCNCC3)c(F)cc2c1=O [CIPROFLOXACIN]
A. 2

Q. Please answer likewise for O=C(N[C@H](CO)[C@H](O)c1ccc([N+](=O)[O-])cc1)C(Cl)Cl [CHLORAMPHENICOL]
A. 16

Q. Another: CS(=O)(=O)c1ccc([C@@H](O)[C@@H](CF)NC(=O)C(Cl)Cl)cc1 [FLORFENICOL]
A. 8

Q. Note, next up: CC1CCc2cc(F)cc3c(=O)c(C(=O)O)cn1c23 (stereo unspecified) [FLUMEQUINE]
A. 256

Q. Same for CCn1cc(C(=O)O)c(=O)c2ccc(C)nc21 [NALIDIXIC ACID]
A. 4100

----------
Tested on: Salmonella typhimurium
Test: Antimicrobial activity against Salmonella enterica serovar Typhimurium BN18/71 harboring GyrA G81C, acrR mutant genes by agar doubling dilution method
Assay type: functional, Salmonella enterica subsp. enterica serovar Typhimurium
Test Readout: MIC (µg/mL)
Your answer is read as µg/mL, so omit the unit and give the number.

Q. Need MIC of "O=C(O)c1cn(C2CC2)c2cc(N3CCNCC3)c(F)cc2c1=O" , thanks.
A. 8

Q. Try this compound too: "CS(=O)(=O)c1ccc([C@@H](O)[C@@H](CF)NC(=O)C(Cl)Cl)cc1"
A. 64

Q. Could you do the same for "CN(C)[C@@H]1C(O)=C(C(N)=O)C(=O)[C@@]2(O)C(O)=C3C(=O)c4c(O)cccc4[C@@](C)(O)[C@H]3C[C@@H]12" , please?
A. 16

Q. // same read-out, input: "O=C(N[C@H](CO)[C@H](O)c1ccc([N+](=O)[O-])cc1)C(Cl)Cl"
A. 64

Q. Entry CC1CCc2cc(F)cc3c(=O)c(C(=O)O)cn1c23 (stereo unspecified) please
A. 512

----------
Tested on: Salmonella typhimurium
Assay: Antimicrobial activity against multidrug-resistant Salmonella enterica serovar Typhimurium 102SA00 harboring plasmid encoded RamR gene, GyrA S83A and D87N, GyrB S464F and ParC S80I mutant genes by agar doubling dilution method
Type: functional, Salmonella enterica subsp. enterica serovar Typhimurium
Test Readout: log10(MIC) (log10 of the value in µg/mL)
Log10 applied to MIC; unit prior to transform: µg/mL.

Q. // lookup log10(MIC) for "O=C(N[C@H](CO)[C@H](O)c1ccc([N+](=O)[O-])cc1)C(Cl)Cl"
A. 2.41

Q. Repeat for the following molecule: CC1CCc2cc(F)cc3c(=O)c(C(=O)O)cn1c23 (stereo unspecified)
A. 2.71

Q. Also, "CCn1cc(C(=O)O)c(=O)c2ccc(C)nc21" please.
A. 3.61

Q. Next record, please: "CN(C)[C@@H]1C(O)=C(C(N)=O)C(=O)[C@@]2(O)C(O)=C3C(=O)c4c(O)cccc4[C@@](C)(O)[C@H]3C[C@@H]12"
A. 2.41

Q. Same again, this time with "CS(=O)(=O)c1ccc([C@@H](O)[C@@H](CF)NC(=O)C(Cl)Cl)cc1"
A. 0.60

Q. Continue with "O=C(O)c1cn(C2CC2)c2cc(N3CCNCC3)c(F)cc2c1=O"
A. 0.90
